src = PubChem BioAssay AID240

test system: Lymphoma 4 ip in BDF1 mice, median survival; assay: NCI In Vivo Anticancer Drug Screen. Data for tumor model Lymphoma 4 (intraperitoneal) in B6D2F1 (BDF1) mice; conditions: endpoint: median survival time; dose: 10.0 mg/kg/injection; schedule: Q01DX010 (ip); vehicle: saline
Toxic doses and inconclusive results are not listed. The calls were made as follows: active = survival T/C of 150% or more; inactive = T/C below 125% in these data.
Possible outcomes: label 1 = active, label 0 = inactive

compound=O=C(O)c1[nH]c(=O)[nH]c(=O)c1F testedon="Lymphoma 4 ip in BDF1 mice, median survival" classassignment="label 0"
compound=N=C(N)SCc1c2ccccc2c(CSC(=N)N)c2ccccc12 testedon="Lymphoma 4 ip in BDF1 mice, median survival" classassignment="label 1"
compound="O=c1[nH]c(=O)n(C2CC(O)C(CO)O2)cc1F (stereo not drawn)" testedon="Lymphoma 4 ip in BDF1 mice, median survival" classassignment="label 0"
compound=N#[N+]c1cnc([O-])[nH]c1=O testedon="Lymphoma 4 ip in BDF1 mice, median survival" classassignment="label 1"
compound=CCOC(=O)c1[nH]c2ccccc2c1CN(CCCl)CCCl testedon="Lymphoma 4 ip in BDF1 mice, median survival" classassignment="label 0"
compound=COc1cc(-c2ccc(Nc3ccccc3C(=O)O)c(OC)c2)ccc1N testedon="Lymphoma 4 ip in BDF1 mice, median survival" classassignment="label 0"
compound=Cc1cc(N(CCCl)CCCl)ccc1N=Nc1ccccc1C(=O)O testedon="Lymphoma 4 ip in BDF1 mice, median survival" classassignment="label 1"
compound=CC[n+]1c(-c2ccccc2)c2cc(N)ccc2c2ccc(N)cc21 testedon="Lymphoma 4 ip in BDF1 mice, median survival" classassignment="label 1"
